B1: PLAGL1 (parent)
chain: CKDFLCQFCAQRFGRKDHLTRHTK

# Variants of: B1
# protocol.summary: protein stability index of a GFP-peptide fusion (GPS, HEK-293T) (PSI 1-6); higher = more stable;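 also: lentivirally expressed fusions sorted by FACS into six bins by GFP to DsRed ratio, PSI derived from sequencing read proportions per bin multiplied by bin number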
# stated.conditions: c terminus: a fixed tail appended
Parameter threshold = 2. Response is 1 (yes) when protein stability index meets or exceeds it, else 0 (no).

# variant.id, assigned.label
measured = [
    ("R12W", "1 (yes)"),
]

Incoming: Hi, just wondering whether T20K shows protein stability index of 2 or higher.
Outgoing: 1 (yes)

Incoming: Hi, just wondering whether C1F shows protein stability index of 2 or higher.
Outgoing: 0 (no)

Incoming: Hi, just wondering whether C1S shows protein stability index of 2 or higher.
Outgoing: 1 (yes)

Incoming: Hi, just wondering whether F8Y shows protein stability index of 2 or higher.
Outgoing: 0 (no)

Incoming: Hi, just wondering whether H18Y shows protein stability index of 2 or higher.
Outgoing: 1 (yes)
